method: physchem
particulars: water
Description: Solubility of the compound in water at 35 degC
recorded.metric: solubility (ng/mL)

{"columns": ["smiles.entry", "units", "val"],
 "data": [
  ["CC(C)CCC[C@@H](C)[C@H]1CC[C@H]2[C@@H]3CC[C@H]4C[C@@H](O)CC[C@]4(C)[C@H]3CC[C@]12C", "ng/mL", 9]
]}

###

method: Solubility of the compound at pH 7.4
Type: physicochemical
particulars: buffer
Parameter solubility: see the listing below.

{"columns": ["smiles.entry", "solubility (µg/mL)"],
 "data": [
  ["O=C(Nc1ccc(-c2nnc(-c3ccccc3)o2)cc1)c1ccc(F)cc1", 5],
  ["O=C(Nc1ccc(-c2nnc(-c3ccccc3)o2)cc1)c1ccccc1", 5.89],
  ["O=C(Nc1ccc(-c2nc(-c3ccccc3)no2)cc1)c1ccccc1", 6.12],
  ["O=C(Nc1ccc(-c2nc(-c3ccccc3)no2)cc1)c1ccc(F)cc1", 5.23]
]}

###

method: Solubility of the compound
Format: physicochemical
recorded.metric: solubility

{"columns": ["compound", "recorded.metric", "val"],
 "data": [
  ["CCCCCCCC [OCTANE]", "solubility", "0.001 mg/mL"],
  ["Oc1cccc2ccnnc12", "solubility", "0.6 mg/mL"],
  ["C=CCCCCCC", "solubility", "0.003 mg/mL"],
  ["Oc1cccc2cncnc12", "solubility", "1.3 mg/mL"],
  ["Oc1cccc2nccnc12", "solubility", "6.6 mg/mL"],
  ["C1CCCCCCC1 [CYCLOOCTANE]", "solubility", "0.007 mg/mL"],
  ["c1ccc2cnccc2c1 [ISOQUINOLINE]", "solubility", "5.66 mg/mL"]
]}

###

Parameter logP: see the listing below.
method: physchem
particulars: octanol/water
Description: Lipophilicity, log P of the compound

{"columns": ["compound", "logP"],
 "data": [
  ["C1CCCCCCC1", 4.07],
  ["c1cncnc1", -0.44],
  ["c1ccc2c(c1)CCNC2 [1,2,3,4-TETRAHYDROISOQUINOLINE]", 1.71],
  ["CCCCCCCC", 4.93]
]}
